# Activity per record follows
- Test system: Rattus norvegicus
- Test protocol: Antiinflammatory activity against carrageenan-induced albino rat hind paw edema model assessed as edema rate at 15 mg/kg, po administered 1 hr before carrageenan challenge measured after 1 hr
- Assay type: functional
Test readout: Activity (%)

INSERT INTO measurements (chemical_string, endpoint_unit, reported_measurement) VALUES
  ('CCOC(=O)c1sc(N)c(C(=O)N/N=C/c2ccc(OC)cc2)c1C', '%', -14.4),
  ('CCOC(=O)c1sc(N)c(C(=O)n2nc(C)cc2C)c1C', '%', 2.58),
  ('CCOC(=O)c1sc(N)c(C(=O)NNC=O)c1C', '%', -51.18),
  ('CCOC(=O)c1sc(N)c(C(=O)N2NC(=O)CC2=O)c1C', '%', -26.54),
  ('CCOC(=O)c1sc2[nH]c(=S)n(N)c(=O)c2c1C', '%', -30.19),
  ('CCOC(=O)c1sc2nc(C)n(N)c(=O)c2c1C', '%', -29.82);

Where do these numbers come from? They come from ChEMBL document CHEMBL1144212.
